Experimental protocol: Unbound brain-to-plasma concentration ratio in rat
Type: ADME
Assay setup: read-out: K(p,uu,brain)
Assay readout: Kp uu
Numbers only.

Look at this compound and give its reported Kp uu. `C[C@@H]1CN(C(=O)[C@H](C)N2CCC(n3c(=O)[nH]c4ccccc43)CC2)C[C@@H](C)N1`
0.8

###

Experimental protocol: Tmax in po dosed rat
Format: ADME, organism-based
Assay setup: in vivo
Assay readout: Tmax (h)
Numbers only, in h.

Recorded Tmax of `C[C@@H]1CN(C(=O)[C@H](C)N2CCC(n3c(=O)[nH]c4ccccc43)CC2)C[C@@H](C)N1` , please.
3

###

Provide the reported CLint scaled of each item.
Experimental protocol: Microsomal stability in human liver microsomes assessed as intrinsic clearance
Format: ADME, Microsome
Assay setup: read-out: CLH

[
  {
    "Smiles repr": "C[C@@H]1CN(C(=O)[C@H](C)N2CCC(n3c(=O)[nH]c4ccccc43)CC2)Cc2ccccc21",
    "CLint scaled": "> 200 mL/min/kg"
  },
  {
    "Smiles repr": "C[C@@H](CN1CCC2(CC1)OC(=O)Nc1cccnc12)NC(=O)c1ccc(F)cc1",
    "CLint scaled": "13 mL/min/kg"
  },
  {
    "Smiles repr": "C[C@@H](CN1CCC2(CC1)OC(=O)Nc1ccncc12)NC(=O)c1ccc(F)cc1",
    "CLint scaled": "12 mL/min/kg"
  }
]

# batch: return CLint scaled for each of the 3 compounds below
1. C[C@@H](C(=O)N1CCOCC1)N1CCC(n2c(=O)[nH]c3ccccc32)CC1
2. C[C@H]1CN(C(=O)[C@H](C)N2CCC(n3c(=O)[nH]c4ccccc43)CC2)CCN1
3. C[C@@H](CN1CCC(n2c(=O)[nH]c3ccccc32)CC1)NC(=O)c1ccc(F)cc1

1: < 5 mL/min/kg; 2: < 5 mL/min/kg; 3: < 4 mL/min/kg
